- target: T1, EsCas13d, nuclease-dead (Eubacterium siraeum, UniProt B0MS50, R295A;H300A;R849A;H854A)
- T1 sequence: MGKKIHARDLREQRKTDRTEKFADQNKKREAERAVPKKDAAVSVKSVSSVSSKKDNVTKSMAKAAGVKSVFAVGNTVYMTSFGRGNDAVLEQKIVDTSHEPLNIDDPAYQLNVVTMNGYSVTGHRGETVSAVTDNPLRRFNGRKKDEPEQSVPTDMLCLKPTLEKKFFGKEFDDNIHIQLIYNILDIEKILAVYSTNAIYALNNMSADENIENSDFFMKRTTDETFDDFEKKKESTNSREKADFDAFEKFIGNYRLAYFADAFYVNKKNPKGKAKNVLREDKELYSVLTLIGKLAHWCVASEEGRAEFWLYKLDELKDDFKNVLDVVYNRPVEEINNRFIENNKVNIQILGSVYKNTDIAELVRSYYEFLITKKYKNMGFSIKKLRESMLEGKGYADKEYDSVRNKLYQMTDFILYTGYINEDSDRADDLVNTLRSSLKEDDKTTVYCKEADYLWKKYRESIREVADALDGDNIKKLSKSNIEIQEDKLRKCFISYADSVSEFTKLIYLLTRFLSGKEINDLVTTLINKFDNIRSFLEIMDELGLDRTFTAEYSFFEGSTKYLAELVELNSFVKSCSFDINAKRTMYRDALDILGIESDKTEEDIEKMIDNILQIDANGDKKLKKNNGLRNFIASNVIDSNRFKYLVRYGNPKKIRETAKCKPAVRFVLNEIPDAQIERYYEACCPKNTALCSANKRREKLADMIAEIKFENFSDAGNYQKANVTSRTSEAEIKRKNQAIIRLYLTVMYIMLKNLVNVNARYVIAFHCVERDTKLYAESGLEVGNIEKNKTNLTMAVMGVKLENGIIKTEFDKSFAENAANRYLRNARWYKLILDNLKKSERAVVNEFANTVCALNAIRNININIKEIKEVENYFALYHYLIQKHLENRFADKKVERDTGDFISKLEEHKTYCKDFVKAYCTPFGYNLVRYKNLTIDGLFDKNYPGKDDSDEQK
- protocol.text: crRNA (strand 1, pre-loaded); Mg2+; 40 mM Tris-HCl pH 7.5, 150 mM NaCl, 6 mM MgCl2, 1 mM DTT, 0.1% Tween-20, 0.2 mg/ml BSA; 25 C; 10 min per concentration, then washed
- condition: tags: His6-TwinStrep-SUMO cleaved; N-terminal SNAP kept (SNAP-Surface 488); label: 3' end held by stalled T7 RNA polymerase
Please respond with TRUE when measured Kd is strictly beneath 40 nM, and with FALSE in all other cases.

# binder, classification
rows = [
    ("target 1 MT 5'PFS AGA 3'PFS UCU (mixed) RNA 1: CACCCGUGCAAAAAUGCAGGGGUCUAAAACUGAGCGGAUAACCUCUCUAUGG RNA 2: GGGAAUGGAUCCACAUCUACGAAUUCAGACCAUAGAGAGGUUAUCCGCUCAUCUAGAUCGGAAGAGCACACGU", "FALSE"),
    ("target 1 U8G,G13U (mixed) RNA 1: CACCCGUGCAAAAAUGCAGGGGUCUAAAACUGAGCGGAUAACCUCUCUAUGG RNA 2: GGGAAUGGAUCCACAUCUACGAAUUCGUACCAUAGAGAUGUUAGCCGCUCACCGAGAUCGGAAGAGCACACGU", "TRUE"),
    ("target 2 MT 5'PFS CUU 3'PFS UUC (mixed) RNA 1: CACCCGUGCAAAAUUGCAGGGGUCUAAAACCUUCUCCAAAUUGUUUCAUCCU RNA 2: GGGAAUGGAUCCACAUCUACGAAUUCCUUAGGAUGAAACAAUUUGGAGAAGUUCAGAUCGGAAGAGCACACGU", "TRUE"),
    ("target 1 insC 3' of 10,insU 3' of 4 (mixed) RNA 1: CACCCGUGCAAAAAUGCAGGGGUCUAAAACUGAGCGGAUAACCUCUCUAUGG RNA 2: GGGAAUGGAUCCACAUCUACGAAUUCGUACCAUAGAGAGGUUCAUCCGCUUCACCGAGAUCGGAAGAGCACACGU", "TRUE"),
    ("target 1 insC 3' of 12,insU 3' of 7 (mixed) RNA 1: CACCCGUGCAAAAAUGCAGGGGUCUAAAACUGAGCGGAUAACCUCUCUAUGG RNA 2: GGGAAUGGAUCCACAUCUACGAAUUCGUACCAUAGAGAGGCUUAUCUCGCUCACCGAGAUCGGAAGAGCACACGU", "TRUE"),
    ("target 1 C7A,A18C (mixed) RNA 1: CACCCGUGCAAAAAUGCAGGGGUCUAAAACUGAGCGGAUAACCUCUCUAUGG RNA 2: GGGAAUGGAUCCACAUCUACGAAUUCGUACCAUCGAGAGGUUAUACGCUCACCGAGAUCGGAAGAGCACACGU", "FALSE"),
    ("target 3 C6G,U8C (mixed) RNA 1: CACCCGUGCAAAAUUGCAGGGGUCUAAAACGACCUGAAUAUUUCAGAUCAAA RNA 2: GGGAAUGGAUCCACAUCUACGAAUUCGUUUUUGAUCUGAAAUACUGAGGUCUGCAGAUCGGAAGAGCACACGU", "FALSE"),
]
